Experiment: Liver microsome metabolic stability (RLM)
Type: in vitro ADME, rat
Conditions: pH 7.4; rat liver microsomes; read-out: RLM T1/2
Property Label: half-life at 1 μmol/L

Examples from the recorded data:
Compound	half-life at 1 μmol/L
C[C@@]1(O)CC[C@H]2[C@H](CC[C@@H]3[C@@H]2CC[C@]2(C)[C@@H](C(=O)Cn4cnn(-c5cccnc5)c4=O)CC[C@@H]32)C1 [S5]	11 min
C[C@@]1(O)CC[C@H]2[C@H](CC[C@@H]3[C@@H]2CC[C@]2(C)[C@@H](C(=O)Cn4cc(C#N)cn4)CC[C@@H]32)C1 [Zuranolone]	48 min

Name the recorded half-life at 1 μmol/L for C[C@@]1(O)CC[C@H]2[C@H](CC[C@@H]3[C@@H]2CC[C@]2(C)[C@@H](C(=O)Cn4ncn(-c5ccc(F)cc5)c4=O)CC[C@@H]32)C1 [S10] .
10 min

---

Target: α4β3δ GABAA receptor (Homo sapiens, UniProt P28472+P48169)
Construct: expressed in transfected cells; host or cells: CHO cells (transient expression)
Sequence (P48169 36-554): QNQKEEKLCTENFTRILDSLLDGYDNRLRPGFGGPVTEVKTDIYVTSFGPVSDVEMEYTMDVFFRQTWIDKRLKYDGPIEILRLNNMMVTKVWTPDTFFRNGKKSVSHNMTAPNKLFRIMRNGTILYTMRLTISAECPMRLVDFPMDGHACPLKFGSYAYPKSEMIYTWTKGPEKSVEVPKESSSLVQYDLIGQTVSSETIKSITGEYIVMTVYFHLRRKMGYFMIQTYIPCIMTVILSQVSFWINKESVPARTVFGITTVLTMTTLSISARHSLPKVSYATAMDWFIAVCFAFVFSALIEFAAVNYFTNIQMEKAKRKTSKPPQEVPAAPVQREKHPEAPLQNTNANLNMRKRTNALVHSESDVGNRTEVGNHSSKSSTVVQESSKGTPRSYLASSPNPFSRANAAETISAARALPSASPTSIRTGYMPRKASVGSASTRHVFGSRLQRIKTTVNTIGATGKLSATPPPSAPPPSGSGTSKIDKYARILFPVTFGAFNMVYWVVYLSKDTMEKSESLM
Sequence (P28472 26-473): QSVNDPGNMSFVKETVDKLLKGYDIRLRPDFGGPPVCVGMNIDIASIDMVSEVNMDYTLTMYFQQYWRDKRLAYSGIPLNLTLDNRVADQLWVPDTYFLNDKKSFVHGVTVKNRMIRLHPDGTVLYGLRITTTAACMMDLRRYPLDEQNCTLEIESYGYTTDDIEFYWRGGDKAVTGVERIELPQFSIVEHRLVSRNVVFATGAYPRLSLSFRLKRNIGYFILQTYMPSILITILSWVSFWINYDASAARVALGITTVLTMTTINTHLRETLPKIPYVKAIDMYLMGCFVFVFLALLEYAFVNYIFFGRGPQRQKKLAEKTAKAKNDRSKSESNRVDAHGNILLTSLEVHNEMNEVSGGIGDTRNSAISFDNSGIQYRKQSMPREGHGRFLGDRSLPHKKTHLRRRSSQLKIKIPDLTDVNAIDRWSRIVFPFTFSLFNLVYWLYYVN
Sequence (O14764 25-452 partner): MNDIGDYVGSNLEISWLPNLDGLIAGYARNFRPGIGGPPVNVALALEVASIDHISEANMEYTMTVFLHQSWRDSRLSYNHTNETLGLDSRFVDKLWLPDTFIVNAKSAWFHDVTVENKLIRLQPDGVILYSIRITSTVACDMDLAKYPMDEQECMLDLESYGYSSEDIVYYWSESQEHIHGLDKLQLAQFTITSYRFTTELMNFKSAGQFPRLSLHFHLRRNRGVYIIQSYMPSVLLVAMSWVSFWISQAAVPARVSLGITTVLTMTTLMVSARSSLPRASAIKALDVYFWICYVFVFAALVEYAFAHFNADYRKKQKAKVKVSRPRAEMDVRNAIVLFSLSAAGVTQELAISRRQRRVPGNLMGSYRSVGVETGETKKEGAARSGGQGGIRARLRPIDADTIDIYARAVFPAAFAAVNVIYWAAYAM
Test: Whole-cell electrophysiology of GABA-evoked currents, CHO cells
Format: cell-based
Property Label: pEC50
Numbers only, as −log10 of the molar value.

If you can, please state the reported pEC50 value of C[C@@]1(O)CC[C@H]2[C@H](CC[C@@H]3[C@@H]2CC[C@]2(C)[C@@H](C(=O)Cn4cc(C#N)cn4)CC[C@@H]32)C1 .
7.03

---

Molecular target: α4β3δ GABAA receptor (Homo sapiens, UniProt P28472+P48169)
Construct: expressed in transfected cells; host or cells: CHO cells (transient expression)
Assay: Whole-cell electrophysiology of GABA-evoked currents, CHO cells
Assay type: cell-based
Details: CHO cells, 1 μmol/L GABA (EC20), n = 3; read-out: α4β3δ EC50
Property Label: pEC50
Give bare numbers, as −log10 of the molar value.

Input Smiles	pEC50
C[C@@]1(O)CC[C@H]2[C@H](CC[C@@H]3[C@@H]2CC[C@]2(C)[C@@H](C(=O)Cn4cnn(-c5cc(Cl)ccn5)c4=O)CC[C@@H]32)C1	7.14
COCCn1ncn(CC(=O)[C@H]2CC[C@H]3[C@@H]4CC[C@@H]5C[C@](C)(O)CC[C@@H]5[C@H]4CC[C@]23C)c1=O	7.07
C[C@@]1(O)CC[C@H]2[C@H](CC[C@@H]3[C@@H]2CC[C@]2(C)[C@@H](C(=O)Cn4cnn(-c5cccc(C(N)=O)c5)c4=O)CC[C@@H]32)C1	6.80
C[C@@]1(O)CC[C@H]2[C@H](CC[C@@H]3[C@@H]2CC[C@]2(C)[C@@H](C(=O)Cn4ncn(CC5CC5)c4=O)CC[C@@H]32)C1	6.85

Okay, here is my list. What is pEC50 for each of these?
1. C[C@@]1(O)CC[C@H]2[C@H](CC[C@@H]3[C@@H]2CC[C@]2(C)[C@@H](C(=O)Cn4ncn(-c5ccc(F)cc5)c4=O)CC[C@@H]32)C1
2. COc1ccc(-n2ncn(CC(=O)[C@H]3CC[C@H]4[C@@H]5CC[C@@H]6C[C@](C)(O)CC[C@@H]6[C@H]5CC[C@]34C)c2=O)cn1

1: 6.83; 2: 6.87

---

Target: α4β3δ GABAA receptor (Homo sapiens, UniProt P28472+P48169)
Construct: expressed in transfected cells; host or cells: CHO cells (transient expression)
Assay: Whole-cell electrophysiology of GABA-evoked currents, CHO cells
Format: cell-based
Details: CHO cells, current induced by 1 μmol/L GABA = 100%, n = 3
Property Label: Emax (%)
Numbers only, in %.

Answered examples (4):
Input Smiles	System Under Test	Emax, %
COc1ccc(-n2ncn(CC(=O)[C@H]3CC[C@H]4[C@@H]5CC[C@@H]6C[C@](C)(O)CC[C@@H]6[C@H]5CC[C@]34C)c2=O)cn1	α4β3δ GABAA receptor (Homo sapiens, UniProt P28472+P48169)	474
C[C@@]1(O)CC[C@H]2[C@H](CC[C@@H]3[C@@H]2CC[C@]2(C)[C@@H](C(=O)Cn4cnn(-c5ccnc(C(F)F)c5)c4=O)CC[C@@H]32)C1	α4β3δ GABAA receptor (Homo sapiens, UniProt P28472+P48169)	432
C[C@@]1(O)CC[C@H]2[C@H](CC[C@@H]3[C@@H]2CC[C@]2(C)[C@@H](C(=O)Cn4cnn(CCOC(F)(F)F)c4=O)CC[C@@H]32)C1	α4β3δ GABAA receptor (Homo sapiens, UniProt P28472+P48169)	889
C[C@@]1(O)CC[C@H]2[C@H](CC[C@@H]3[C@@H]2CC[C@]2(C)[C@@H](C(=O)Cn4cnn(-c5cccc(C(N)=O)c5)c4=O)CC[C@@H]32)C1	α4β3δ GABAA receptor (Homo sapiens, UniProt P28472+P48169)	386

// moving on: another record for Emax
Look at this compound and give its reported Emax. C[C@@]1(O)CC[C@H]2[C@H](CC[C@@H]3[C@@H]2CC[C@]2(C)[C@@H](C(=O)Cn4cnn(-c5cc(F)cc(C#N)c5)c4=O)CC[C@@H]32)C1
549
